- Test system: ZR-75-30
- protocolText: Cancer cell proliferation assay, single agent
- Format: cell-based
- recordedConditions: Homo sapiens, Treatment Duration 24 h
measuredAttribute: IC50 (nM)
Numbers only, in nM.

The reported value for "CC(C)N1CCOc2c(F)cc(-c3nc(Nc4ccc(N5CCNCC5)cn4)ncc3F)cc21" in terms of IC50 is 49

* * *

Quick record: pIC50, UniProt P07333.
Answers are plain numbers, as −log10 of the molar value.

Please review the following examples before continuing.
{"columns": ["compound", "pIC50"],
 "data": [
  ["CC(C)N1CCOc2c(F)cc(-c3nc(Nc4ccc(N5CCCNCC5)cn4)ncc3F)cc21", 6.12],
  ["CC(C)N1CCN(c2ccc(Nc3ncc(F)c(-c4cc(F)c5c(c4)N(C(C)C)CCO5)n3)cc2F)CC1", 7.68],
  ["CC(C)N1CCOc2c(F)cc(-c3nc(Nc4ccc(N5CCN6CCCC6C5)c(F)c4)ncc3F)cc21 (stereo not shown)", 8.15]
]}

Turning now to a further compound:
The reported value for "CC(C)N1CCOc2c(F)cc(-c3nc(Nc4ccc(N5CCNCC5)nc4)ncc3F)cc21" in terms of pIC50 is 7.60

* * *

Quick record: IC50, CDK1 (cyclin B) (Homo sapiens (Human), UniProt P06493).
Numbers only, in nM.

Batch request: IC50 per item, same order as input.
1. Fc1cnc(Nc2ccc3c(n2)CCNC3)nc1-c1cc(F)c2c(c1)N(C1CCCC1)CCO2
2. CC(C)N1CCOc2c(F)cc(-c3nc(Nc4ccc(N5CCCNCC5)cn4)ncc3F)cc21
3. Fc1cnc(Nc2ccc(N3CCCNCC3)cn2)nc1-c1cc(F)c2c(c1)N(C1CCCC1)CCO2
4. CC(C)CN1CCOc2c(F)cc(-c3nc(Nc4ccc5c(n4)CCNC5)ncc3F)cc21

OUTPUT:
1. 78
2. 158
3. 453
4. 181

* * *

- System: Hs-578T
- protocolText: Cancer cell proliferation assay, single agent
- Assay type: cell-based
- recordedConditions: Homo sapiens, Treatment Duration 24 h
measuredAttribute: pIC50
Numbers only, as −log10 of the molar value.

The reported value for "CC(C)N1CCOc2c(F)cc(-c3nc(Nc4ccc(N5CCNCC5)cn4)ncc3F)cc21" in terms of pIC50 is 7.22

* * *

- assaySystem: FMS kinase (Homo sapiens (Human), UniProt P07333)
- Sequence (P07333 20-972): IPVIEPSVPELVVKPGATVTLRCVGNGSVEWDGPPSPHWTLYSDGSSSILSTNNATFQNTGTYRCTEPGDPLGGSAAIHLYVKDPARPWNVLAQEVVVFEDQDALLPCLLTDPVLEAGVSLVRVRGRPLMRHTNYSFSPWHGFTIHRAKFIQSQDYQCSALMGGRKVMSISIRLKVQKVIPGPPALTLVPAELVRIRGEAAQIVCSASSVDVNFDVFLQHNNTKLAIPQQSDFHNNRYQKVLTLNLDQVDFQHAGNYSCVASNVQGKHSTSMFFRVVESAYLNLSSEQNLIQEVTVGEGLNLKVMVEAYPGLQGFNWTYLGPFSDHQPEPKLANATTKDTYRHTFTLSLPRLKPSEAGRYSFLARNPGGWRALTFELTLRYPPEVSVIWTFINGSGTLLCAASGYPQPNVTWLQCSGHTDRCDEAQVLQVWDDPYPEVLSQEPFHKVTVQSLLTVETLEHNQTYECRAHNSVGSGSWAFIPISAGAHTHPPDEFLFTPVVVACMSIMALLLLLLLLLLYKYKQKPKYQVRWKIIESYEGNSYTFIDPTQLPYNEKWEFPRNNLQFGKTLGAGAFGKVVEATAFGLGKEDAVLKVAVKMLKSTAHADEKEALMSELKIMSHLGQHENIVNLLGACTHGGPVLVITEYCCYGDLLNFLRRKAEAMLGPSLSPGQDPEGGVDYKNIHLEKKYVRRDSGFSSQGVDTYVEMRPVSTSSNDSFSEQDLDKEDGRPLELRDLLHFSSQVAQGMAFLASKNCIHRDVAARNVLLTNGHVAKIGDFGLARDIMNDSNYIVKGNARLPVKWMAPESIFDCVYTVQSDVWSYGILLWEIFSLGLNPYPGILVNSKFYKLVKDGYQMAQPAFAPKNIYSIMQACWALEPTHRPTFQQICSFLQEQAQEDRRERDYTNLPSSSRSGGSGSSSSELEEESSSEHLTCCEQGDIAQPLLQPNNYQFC
Response field label takes T when IC50 is strictly below 8 nM and F in all other cases.

A selection of reference data follows.
{"columns": ["smilesText", "label"],
 "data": [
  ["CC(C)N1CCOc2c(F)cc(-c3nc(Nc4ccc(N5CCNCC5)c(F)c4)ncc3Cl)cc21", "F"],
  ["Fc1cnc(Nc2ccc(N3CCOCC3)cn2)nc1-c1cc(F)c2c(c1)N(C1CCC1)CCO2", "F"],
  ["CC(C)N1CCOc2c(F)cc(-c3nc(Nc4ccc(C5CCNCC5)c(C(F)(F)F)c4)ncc3F)cc21", "T"],
  ["CCN1CCN(C(=O)c2ccc(Nc3ncc(F)c(-c4cc(F)c5c(c4)N(C(C)C)CCO5)n3)cc2F)CC1", "F"],
  ["CC(C)N1CCOc2c(F)cc(-c3nc(Nc4ccc(N5CCC(CO)CC5)cn4)ncc3F)cc21", "F"],
  ["CC(C)N1CCOc2c(F)cc(-c3nc(Nc4ccn(C5=CCNCC5)c(=O)c4)ncc3F)cc21", "F"]
]}

Field: next compound
INPUT: For this compound, is IC50 lower than 8 nM? "CCCN1CCOc2c(F)cc(-c3nc(Nc4ccc(N5CCC(N(C)C)CC5)c(F)c4)ncc3F)cc21"
OUTPUT: F

* * *

- assaySystem: UniProt:Q00534
pIC50: −log10 of the molar value.
Binary call on pIC50: Condition met from 8 upward, Condition not met beneath that.

A selection of reference data follows.
{"columns": ["compound", "assaySystem", "label"],
 "data": [
  ["CC(C)N1CCOc2c(F)cc(-c3nc(Nc4ccc(N5CCC(O)CC5)c(F)c4)ncc3F)cc21 [Compound 445]", "UniProt:Q00534", "Condition not met"],
  ["CC(C)N1CCOc2c(F)cc(-c3nc(Nc4ccc(N5CCC(N)CC5)cn4)ncc3F)cc21 [Compound 788]", "UniProt:Q00534", "Condition met"],
  ["CC(C)N1CCOc2c(F)cc(-c3nc(Nc4ccc(N5CCN(C(=O)CN(C)C)CC5)c(F)c4)ncc3F)cc21 [Compound 449]", "UniProt:Q00534", "Condition met"]
]}

Field: next compound
INPUT: For this compound, is measured pIC50 8 or higher? CC(C)CN1CCOc2c(F)cc(-c3nc(Nc4ccc(C5CCN(C)CC5)cn4)ncc3F)cc21 [Compound 479]
OUTPUT: Condition met

* * *

Quick record: IC50, FMS kinase (Homo sapiens (Human), UniProt P07333).

Please review the following examples before continuing.
{"columns": ["compound", "assaySystem", "IC50"],
 "data": [
  ["CC(C)N1CCOc2c(F)cc(-c3nc(Nc4ccc(N5CCN(C(=O)CN(C)C)CC5)c(F)c4)ncc3F)cc21 [Compound 449]", "FMS kinase (Homo sapiens (Human), UniProt P07333)", "0.0095 µM"],
  ["CC(C)N1CCOc2c(F)cc(-c3nc(Nc4ccc(CN5CCC(N(C)C)CC5)c(F)c4)ncc3F)cc21 [Compound 462]", "FMS kinase (Homo sapiens (Human), UniProt P07333)", "0.025 µM"],
  ["CN1CCC(c2ccc(Nc3ncc(F)c(-c4cc(F)c5c(c4)N(C4CCCC4)CCO5)n3)cc2F)CC1 [Compound 471]", "FMS kinase (Homo sapiens (Human), UniProt P07333)", "0.454 µM"],
  ["CC(C)N1CCOc2c(F)cc(-c3nc(Nc4ccc(N5CCC(N(C)C)CC5)c(C(F)(F)F)c4)ncc3F)cc21 [Compound 178]", "FMS kinase (Homo sapiens (Human), UniProt P07333)", "0.005 µM"],
  ["CC(C)N1CCOc2c(F)cc(-c3nc(Nc4ccc5c(c4)CCC(N(C)C)C5)ncc3F)cc21 (stereo not drawn) [Compound 47]", "FMS kinase (Homo sapiens (Human), UniProt P07333)", "0.0025 µM"]
]}

Batch request: IC50 per item, same order as input.
1. CC(C)CN1CCOc2c(F)cc(-c3nc(Nc4ccc(N5CCOCC5)cn4)ncc3F)cc21 [Compound 489]
2. CC(C)N1CCOc2c(F)cc(-c3nc(Nc4ccc(C(=O)N5CCC(O)CC5)c(F)c4)ncc3F)cc21 [Compound 458]
3. CC(C)N1CCOc2c(F)cc(-c3nc(Nc4ccc(N5CCNCC5)c(C#N)c4)ncc3F)cc21 [Compound 21]
4. CC(C)N1CCOc2c(F)cc(-c3nc(Nc4ccc5c(n4)CCNC5)ncc3F)cc21 [Compound 481]
5. CC(C)CN1CCOc2c(F)cc(-c3nc(Nc4ccc(C5CCN(C)CC5)c(F)c4)ncc3F)cc21 [Compound 476]
6. CC1CN(c2ccc(Nc3ncc(F)c(-c4cc(F)c5c(c4)N(C(C)C)CCO5)n3)nc2)CCN1 (stereo not drawn) [Compound 10]
7. CC(C)N1CCOc2c(F)cc(-c3nc(Nc4ccc5c(c4)CCN(C(=O)CN(C)C)C5)ncc3F)cc21 [Compound 456]

OUTPUT:
1. > 5 µM
2. 0.029 µM
3. 0.163 µM
4. 0.426 µM
5. 0.174 µM
6. 0.57 µM
7. 0.004 µM

Batch request: IC50 per item, same order as input.
1. CN1CCOc2c(F)cc(-c3nc(Nc4ccc(N5CCC(N(C)C)CC5)c(F)c4)ncc3F)cc21 [Compound 467]
2. CC(C)N1CCOc2c(F)cc(-c3nc(Nc4ccc(C(=O)N5CCOCC5)c(F)c4)ncc3F)cc21 [Compound 457]
3. CC(C)N1CCOc2c(F)cc(-c3nc(Nc4cc(F)c(C5CCNCC5)cn4)ncc3F)cc21 [Compound 443]

OUTPUT:
1: 0.014 µM; 2: 0.068 µM; 3: 0.95 µM

* * *

- assaySystem: FMS kinase (Homo sapiens (Human), UniProt P07333)
Response field label takes met when IC50 is strictly below 60 nM and not met in all other cases.

A selection of reference data follows.
{"columns": ["compound", "label"],
 "data": [
  ["CC(C)N1CCOc2c(F)cc(-c3nc(Nc4ccc(N5CCS(=O)(=O)CC5)c(F)c4)ncc3F)cc21", "not met"],
  ["CC(C)N1CCOc2c(F)cc(-c3nc(Nc4ccc5c(c4)CC(N(C)C)CC5)ncc3F)cc21 (stereo not shown)", "met"],
  ["CC(C)N1CCOc2c(F)cc(-c3nc(Nc4ccc(N5CCN(CCO)CC5)cn4)ncc3F)cc21", "not met"],
  ["CC(C)N1CCOc2c(F)cc(-c3nc(Nc4ccc(N5CCNCC5)cn4)ncc3F)cc21", "not met"],
  ["CC(C)N1CCOc2c(F)cc(-c3nc(Nc4ccc(N5CCN(C)CC5)c(F)c4)ncc3F)cc21", "met"]
]}

INPUT: For this compound, is IC50 lower than 60 nM? "CCN1CCOc2c(F)cc(-c3nc(Nc4ccc(N5CCNCC5)c(F)c4)ncc3F)cc21"
OUTPUT: met

INPUT: For this compound, is IC50 lower than 60 nM? CCN1CCN(Cc2ccc(Nc3ncc(F)c(-c4cc(F)c5c(c4)N(C4CCC(N)CC4)CCO5)n3)nc2)CC1 (stereo not shown)
OUTPUT: not met

INPUT: For this compound, is IC50 lower than 60 nM? "Fc1cnc(Nc2ccc3c(n2)CCNC3)nc1-c1cc(F)c2c(c1)N(C1CCC1)CCO2"
OUTPUT: not met

INPUT: For this compound, is IC50 lower than 60 nM? "CC(C)N1CCOc2c(F)cc(-c3nc(Nc4ccc(C5CCN(C(=O)CN(C)C)CC5)cn4)ncc3F)cc21"
OUTPUT: not met

INPUT: For this compound, is IC50 lower than 60 nM? "CC(C)N1CCOc2c(F)cc(-c3nc(Nc4cnn(C5CCNCC5)c4)ncc3F)cc21"
OUTPUT: met

INPUT: For this compound, is IC50 lower than 60 nM? CC1CN(C(C)C)c2cc(-c3nc(Nc4ccc(N5CCNCC5)c(F)c4)ncc3F)cc(F)c2O1 (stereo not shown)
OUTPUT: not met

INPUT: For this compound, is IC50 lower than 60 nM? "CC(C)N1CCc2ccc(Nc3ncc(F)c(-c4cc(F)c5c(c4)N(C(C)C)CCO5)n3)cc2C1"
OUTPUT: met

INPUT: For this compound, is IC50 lower than 60 nM? "CC(C)N1CCOc2c(F)cc(-c3nc(Nc4ccc(N5CCN(C)CC5)cc4)ncc3F)cc21"
OUTPUT: not met

INPUT: For this compound, is IC50 lower than 60 nM? "CN1CCOc2c(F)cc(-c3nc(Nc4ccc(N5CCNCC5)c(F)c4)ncc3F)cc21"
OUTPUT: met
